- target-system: human α7 nAChR (Homo sapiens)
- Sequence (P36544 23-502): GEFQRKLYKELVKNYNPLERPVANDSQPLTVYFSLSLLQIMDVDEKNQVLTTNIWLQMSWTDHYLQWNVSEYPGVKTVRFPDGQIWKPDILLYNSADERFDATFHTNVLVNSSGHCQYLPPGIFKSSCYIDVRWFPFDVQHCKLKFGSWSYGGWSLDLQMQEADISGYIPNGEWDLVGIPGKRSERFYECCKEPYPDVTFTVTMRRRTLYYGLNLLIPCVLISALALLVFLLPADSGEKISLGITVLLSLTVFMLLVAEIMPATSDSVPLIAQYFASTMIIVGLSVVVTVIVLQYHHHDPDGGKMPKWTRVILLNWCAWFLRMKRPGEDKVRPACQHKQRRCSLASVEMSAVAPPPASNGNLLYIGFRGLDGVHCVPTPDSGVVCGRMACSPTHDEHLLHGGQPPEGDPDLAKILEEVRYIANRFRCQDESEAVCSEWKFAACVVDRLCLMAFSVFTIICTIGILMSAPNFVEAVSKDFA
- protocol: Two-electrode voltage clamp of Xenopus oocytes expressing α7 nAChR
pEC50: −log10 of the molar value.
recorded-metric: pEC50

>>> df
   structure_notation                  target_system  recorded_metric  experimental_value
0      C[N+](C)(C)CCO  human α7 nAChR (Homo sapiens)            pEC50               ~3.70
